Target: TbMCP-1 (Trypanosoma brucei, UniProt Q386R0)
Sequence (Q386R0 entry or part of it): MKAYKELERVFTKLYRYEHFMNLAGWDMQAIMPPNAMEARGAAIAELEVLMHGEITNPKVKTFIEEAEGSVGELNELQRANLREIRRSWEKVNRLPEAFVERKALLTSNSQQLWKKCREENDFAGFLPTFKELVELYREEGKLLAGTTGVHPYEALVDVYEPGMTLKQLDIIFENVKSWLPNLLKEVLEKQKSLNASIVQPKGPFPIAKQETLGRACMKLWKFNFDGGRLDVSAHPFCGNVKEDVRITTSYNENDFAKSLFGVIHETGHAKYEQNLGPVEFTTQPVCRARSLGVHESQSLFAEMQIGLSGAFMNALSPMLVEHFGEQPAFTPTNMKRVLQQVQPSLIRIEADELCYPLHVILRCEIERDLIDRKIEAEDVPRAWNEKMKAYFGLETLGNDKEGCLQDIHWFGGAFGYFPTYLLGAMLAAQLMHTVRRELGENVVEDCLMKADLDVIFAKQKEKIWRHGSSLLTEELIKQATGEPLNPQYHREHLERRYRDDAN
Test: Continuous fluorogenic (FRET) TbMCP-1 assay with Abz-RFFK(Dnp)-OH, primary and secondary screening
Assay type: biochemical
Conditions: single inhibitor concentration 25 µM
READOUT_NAME: TbMCP-1 Primary screening Inhibition (%)

Looking up CN(CC1CCCO1)S(=O)(=O)c1ccc(C(=O)Nc2nc(-c3ccccn3)cs2)cc1 (stereo not drawn) , I see its TbMCP-1 Primary screening Inhibition (%) listed as 42,28%

Looking up CC1=C(C(=O)Nc2ccc(Cl)cc2)C(c2ccncc2)n2ncc(C(=O)Nc3ccccc3)c2N1 (stereo not drawn) , I see its TbMCP-1 Primary screening Inhibition (%) listed as 48,70%

Looking up COc1cc(Nc2nccc(Nc3onc(C)c3C)n2)cc(S(=O)(=O)C2CCOCC2)c1 , I see its TbMCP-1 Primary screening Inhibition (%) listed as 47,90%

Looking up Cc1c(Nc2cc(C3CC3)n[nH]2)ccc(C#N)c1Cl.O=C(O)C(F)(F)F , I see its TbMCP-1 Primary screening Inhibition (%) listed as 52,66%

Looking up C[C@@H](Oc1cc(-n2cnc3ccc(O[C@H]4CCNC4)cc32)sc1C(N)=O)c1ccccc1Cl , I see its TbMCP-1 Primary screening Inhibition (%) listed as 40,42%

Looking up N#Cc1cc([N+](=O)[O-])ccc1NC1CCCCCC1 , I see its TbMCP-1 Primary screening Inhibition (%) listed as 41,27%

Looking up Cc1cc(C#N)c([N+](=O)[O-])cc1Br , I see its TbMCP-1 Primary screening Inhibition (%) listed as 44,26%

Looking up Cc1c([N+](=O)[O-])c(C(=O)Nc2sc3c(c2C#N)CCC(C)C3)nn1C (stereo not drawn) , I see its TbMCP-1 Primary screening Inhibition (%) listed as 44,57%

Looking up CCC1Oc2cc(S(=O)(=O)N(C)CC(=O)N3CCc4ccccc4C3)c(C)cc2NC1=O (stereo not drawn) , I see its TbMCP-1 Primary screening Inhibition (%) listed as 55,90%

Looking up COc1ccc2ncc(Cl)c(CCN3CC[C@@H](NCc4cc5c(cn4)OCS5)[C@H](O)C3)c2n1 , I see its TbMCP-1 Primary screening Inhibition (%) listed as 56,08%

Looking up O=C(N[C@H](CO)c1ccccc1)c1ccc(-c2c[nH]c3nccc(C(F)(F)F)c23)s1 , I see its TbMCP-1 Primary screening Inhibition (%) listed as 45,94%

Looking up CN(C)S(=O)(=O)c1ccc(Cl)c(C(=O)Nc2nc(-c3ccccn3)cs2)c1 , I see its TbMCP-1 Primary screening Inhibition (%) listed as 59,46%

Looking up O=C(NCC1CCCCC1)c1cc(=O)c2ccccc2o1 , I see its TbMCP-1 Primary screening Inhibition (%) listed as 44,99%

Looking up Cl.Cl.O=c1ccc2ccc(F)c3c2n1C[C@H]3CN1CCN(CC(O)c2cc3c(cn2)OCS3)CC1 (stereo partly drawn) , I see its TbMCP-1 Primary screening Inhibition (%) listed as 44,84%

Looking up O=C(c1cc2cc(Cl)ccc2[nH]1)N1CCCCC1c1cccnc1 (stereo not drawn) , I see its TbMCP-1 Primary screening Inhibition (%) listed as 52,96%

* * *

Target: TbMCP-1 (Trypanosoma brucei, UniProt Q386R0)
Assay: Continuous fluorogenic (FRET) TbMCP-1 assay with Abz-RFFK(Dnp)-OH, primary and secondary screening
Assay type: biochemical
Details: single inhibitor concentration 31,5 µM
For each record, write down the corresponding TbMCP-1 Secondary screening Inhibition (%).

Looking up O=C(NCC1CCCCC1)c1cc(=O)c2ccccc2o1 , I see its TbMCP-1 Secondary screening Inhibition (%) listed as -2,11%

Looking up COc1cc(Nc2nccc(Nc3onc(C)c3C)n2)cc(S(=O)(=O)C2CCOCC2)c1 , I see its TbMCP-1 Secondary screening Inhibition (%) listed as 6,29%

Looking up Cc1cc(C#N)c([N+](=O)[O-])cc1Br , I see its TbMCP-1 Secondary screening Inhibition (%) listed as 8,89%

Looking up Cl.NS(=O)(=O)c1ccc(Nc2ncc3cccc(OC4CCNCC4)c3n2)cc1 , I see its TbMCP-1 Secondary screening Inhibition (%) listed as 57,14%

Looking up CN(CC1CCCO1)S(=O)(=O)c1ccc(C(=O)Nc2nc(-c3ccccn3)cs2)cc1 (centres unmarked) , I see its TbMCP-1 Secondary screening Inhibition (%) listed as 41,97%

Looking up CN(C)S(=O)(=O)c1ccc(Cl)c(C(=O)Nc2nc(-c3ccccn3)cs2)c1 , I see its TbMCP-1 Secondary screening Inhibition (%) listed as 23,62%

Looking up CC1=C(C(=O)Nc2ccc(Cl)cc2)C(c2ccncc2)n2ncc(C(=O)Nc3ccccc3)c2N1 (centres unmarked) , I see its TbMCP-1 Secondary screening Inhibition (%) listed as 24,44%

Looking up O=C(N[C@H](CO)c1ccccc1)c1ccc(-c2c[nH]c3nccc(C(F)(F)F)c23)s1 , I see its TbMCP-1 Secondary screening Inhibition (%) listed as 35,87%
